Target: T1, ヒト組織因子経路インヒビター (human TFPI) (human, UniProt P10646 29-304, limits assumed)
T1 construct: Coated on Maxisorp plates (ELISA) or amine-coupled to a CM5 chip (Biacore); also called ヒトTFPI; hTFPI
T1 sequence (looked up): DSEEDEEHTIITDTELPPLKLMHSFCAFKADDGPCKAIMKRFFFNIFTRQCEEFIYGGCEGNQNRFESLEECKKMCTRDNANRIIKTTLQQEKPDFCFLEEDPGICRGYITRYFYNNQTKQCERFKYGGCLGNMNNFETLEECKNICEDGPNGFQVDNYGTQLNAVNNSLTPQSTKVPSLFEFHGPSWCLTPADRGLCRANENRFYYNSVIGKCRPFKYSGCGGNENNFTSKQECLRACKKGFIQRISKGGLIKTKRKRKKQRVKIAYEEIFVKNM
Assay: ELISA, Fab in bacterial lysate on human TFPI-coated plate
measurement.label: binding result

binder	measurement.label	result
TP-3F1 (Fab, V domains shown, Human Fab (HuCal Gold), made in E. coli TG1) VH: QVQLVQSGAEVKKPGESLKISCKGSGYSFTDYWIGWVRQMPGKGLEWMGIIQPSDSDTNYSPSFQGQVTISADKSISTAYLQWSSLKASDTAMYYCARFMWWGKYDSGFDVWGQGTLVTVSS VL: DIELTQPPSVSVAPGQTARISCSGDNIGSYFASWYQQKPGQAPVLVIYDDSNRPSGIPERFSGSNSGNTATLTISGTQAEDEADYYCEGSNVFGGGTKLTVLG	binding result	binds
TP-2B3 (Fab, V domains shown, Human Fab (HuCal Gold), made in E. coli TG1) VH: QVQLQQSGPGLVKPSQTLSLTCAISGDSVSSNSAAWGWIRQSPGRGLEWLGMIYYRSKWYNSYAVSVKSRITINPDTSKNQFSLQLNSVTPEDTAVYYCARTMSKYGGPGMDVWGQGTLVTVSS VL: DIVLTQSPATLSLSPGERATLSCRASQNIGSNYLAWYQQKPGQAPRLLIYGASTRATGVPARFNGSGSGTDFTLTISSLEPEDFAVYYCQQLNSIPVTFGQGTKVEIKR	binding result	binds
